Test system: HEK-293T
Assay: Incucyte cell viability with HEK293T; also: unitless GR value; below 1 slowed growth and below 0 cell loss
Assay type: toxicity, cell-based
Settings: human, 24 h, 10 µM, compound concentration 10 uM, replicate number 2
Listing of entries alongside the reported Growth Rate.

# compound, test system, Growth Rate
data = [
    ("Cl.O=C(O)CCCN1CCC[C@H]1COc1ccc(Oc2ccc(Cl)cc2)cc1", "HEK-293T", 0.53),
    ("CN[C@@H](C)C/C=C/c1cncc(OC(C)C)c1", "HEK-293T", 0.96),
    ("N[C@@H](CC(=O)O)Cn1nnc(-c2ccc(Oc3ncc(Cl)cc3F)cc2)n1", "HEK-293T", 0.83),
    ("Cn1ccc(Cn2cnc(-c3ccc(F)cc3)c2-c2ccnc3[nH]ccc23)n1", "HEK-293T", 0.89),
    ("O=C(O)c1cc(-c2ccccc2)ccc1O", "HEK-293T", 0.94),
    ("Cc1cc(OC2CCS(=O)(=O)CC2)cc(C)c1-c1cccc(COc2ccc(CCC(=O)O)c(F)c2)c1", "HEK-293T", 0.96),
    ("COc1cc(C(=O)N2CC[C@@H](O)[C@@H](N)C2)cc2nc(-c3cc4ccccc4n3CC3CC3)n(C)c12.Cl", "HEK-293T", 0.27),
    ("O=C1Nc2ccc(I)cc2/C1=C/c1cc(Br)c(O)c(Br)c1", "HEK-293T", 0.86),
    ("C[C@@H](Oc1cc(-n2cnc3ccc(OC4CCN(C)CC4)cc32)sc1C(N)=O)c1ccccc1Cl [GSK-579289A]", "HEK-293T", 0.99),
    ("CCc1nc(-c2cccc(C)c2)c(-c2ccnc(NC(=O)c3ccccc3)c2)s1", "HEK-293T", 0.81),
    ("CC1(C)Cc2nc(C3CCCC3)c([C@@H](F)c3ccc(C(F)(F)F)cc3)c(C3CCCCC3)c2[C@@H](O)C1", "HEK-293T", 0.89),
    ("C[C@H](c1ccnc(Nc2nc3ccc(-c4cc(N(C)C)ncn4)cc3[nH]2)c1)N1CCN(C(=O)CC(F)(F)F)CC1", "HEK-293T", 0.92),
    ("Cc1cc(NC(=O)c2cccc(NC(=O)/C=C/CN(C)C)c2)ccc1Nc1nccc(-c2cccnc2)n1", "HEK-293T", -0.26),
    ("CCCCc1oc2ccccc2c1C(=O)c1cc(I)c(OCCN(CC)CC)c(I)c1.Cl [AMIODARONE HYDROCHLORIDE]", "HEK-293T", 0.24),
    ("CN[C@@H](C)C(=O)N[C@H]1CCCC[C@H]2CC[C@@H](C(=O)N[C@@H](c3ccccc3)c3cn(CCCCc4ccc(CCCCn5cc([C@@H](NC(=O)[C@@H]6CC[C@@H]7CCCC[C@H](NC(=O)[C@H](C)NC)C(=O)N76)c6ccccc6)nn5)cc4)nn3)N2C1=O", "HEK-293T", 0.84),
    ("Cl.Cl.O=[N+]([O-])c1ccc(CN2CCOCCOCCN(Cc3ccc([N+](=O)[O-])cc3)CCOCC2)cc1", "HEK-293T", 0.52),
    ("CN(C)C(=O)c1sc2nc(N3CCC(S(C)(=O)=O)CC3)cc(C(F)(F)F)c2c1N", "HEK-293T", 0.98),
    ("CCC(C)(C)NC(=NC#N)Nc1cccnc1", "HEK-293T", 0.95),
    ("COc1cc(-c2cncc(-c3ccc(N4CCN(C(C)C)CC4)cc3)c2C)cc(F)c1C(=O)N1CCCC1", "HEK-293T", 0.92),
    ("NS(=O)(=O)c1ccc(Nc2nc(OCC3CCCCC3)c3nc[nH]c3n2)cc1", "HEK-293T", 0.82),
    ("COC(=O)c1cc2c(cn1)[nH]c1ccccc12", "HEK-293T", 0.86),
    ("CC1(C)Oc2ncnc(N)c2N=C1c1ccc([C@H]2CC[C@H](CC(=O)O)CC2)cc1", "HEK-293T", 0.99),
    ("Cl.O=S(=O)(c1cccc2c(I)cccc12)N1CCCNCC1", "HEK-293T", 0.88),
    ("O=C(CCCN1CCC(O)(c2ccc(Cl)cc2)CC1)c1ccc(F)cc1", "HEK-293T", 0.75),
    ("Cc1nc2ccc(Oc3ccc(F)cc3)cc2c(=O)n1C[C@H]1CCCN(C(C)C)C1.Cl", "HEK-293T", 0.23),
]
